Measured values drawn from patent US20230089014A1 for this set.

system_name: EGFR D770-N771insNPG (Homo sapiens, UniProt P00533, INS770NPG)
Sequence (P00533 with tags, fused parts or gaps INS770NPG limits assumed): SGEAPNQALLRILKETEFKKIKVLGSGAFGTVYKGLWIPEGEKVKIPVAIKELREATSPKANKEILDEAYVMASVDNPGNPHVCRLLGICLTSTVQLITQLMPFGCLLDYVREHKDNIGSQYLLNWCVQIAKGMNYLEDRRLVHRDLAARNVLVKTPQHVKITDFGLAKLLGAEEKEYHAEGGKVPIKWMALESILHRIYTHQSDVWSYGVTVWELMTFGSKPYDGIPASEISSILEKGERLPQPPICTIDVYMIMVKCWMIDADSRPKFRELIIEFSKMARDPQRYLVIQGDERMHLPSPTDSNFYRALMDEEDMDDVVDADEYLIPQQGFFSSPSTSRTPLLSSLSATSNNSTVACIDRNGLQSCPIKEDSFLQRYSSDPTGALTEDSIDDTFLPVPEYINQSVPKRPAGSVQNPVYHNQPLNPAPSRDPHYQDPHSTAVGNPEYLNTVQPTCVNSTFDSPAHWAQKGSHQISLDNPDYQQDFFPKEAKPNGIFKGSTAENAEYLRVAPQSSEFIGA
method: Kinase activity assay (33P-ATP filter-binding) on EGFR exon 20 insertion mutant kinase D770-N771insNPG
Assay type: biochemical
condition_label: ATP at Km
measure_name: pIC50
API: returns pIC50 as number; meaning -log10 of concentration in mol/L.

* COc1cc2ncnc(Nc3ccc(Cl)c(Cl)c3F)c2cc1N1CCCC1 [Example 2] | 8.78
* C=CC(=O)N1CCC(C(=O)c2cc3c(Nc4ccc(Cl)c(Cl)c4F)ncnc3cc2OC)CC1 [Example 6] | 8.35
* C=CC(=O)N1CC2CC(Oc3cc4c(Nc5ccc(Cl)c(Cl)c5F)ncnc4cc3OC)CC2C1 (stereo not shown) [Example 7] | 9.08
* C=CC(=O)N1CC(C(=O)c2cc3c(Nc4ccc(Cl)c(Cl)c4F)ncnc3cc2OC)C1 [Example 4] | 8.52
* C=CC(=O)N1CC2CN(c3cc4c(Nc5ccc(Cl)c(Cl)c5F)ncnc4cc3OC)CC2C1 (stereo not shown) [Example 1] | 8.79
* C=CC(=O)N1CC(C(F)(F)c2cc3c(Nc4ccc(Cl)c(Cl)c4F)ncnc3cc2OC)C1 [Example 3] | 9.29

The reported pIC50 of the compound C=CC(=O)N1CCC(C(F)(F)c2cc3c(Nc4ccc(Cl)c(Cl)c4F)ncnc3cc2OC)CC1 [Example 5] was 8.81
